# Assayed System: human TREM2 (Homo sapiens)
# Construct: expressed in transfected cells; host or cells: HEK293T-hTREM2 cells (HEK cell line expressing human TREM2 and DAP12)
# Experiment Summary: TREM2 agonist potency by cellular phosphorylation of Syk (AlphaLisa) in HEK293T-hTREM2 cells expressing human TREM2 and DAP12
# Format: cell-based
# Stated Conditions: HEK293 cells expressing hTREM2 and DAP12; 45 minutes at room temperature; Syk phosphorylation, AlphaLisa; read-out: hTREM2 EC50
pEC50: −log10 of the molar value.
Reported pEC50 values are given for each entry in this list.

Per the record, Cc1nc2nc(N3C[C@@H](C)O[C@@H](c4cnn(C5CC5)c4)C3)nc(C34CC(C#N)(C3)C4)c2nc1C has pEC50 of > 7.00

Record Cc1cc([C@H]2CN(c3nc(C4CCCCC4)c4cc(C#N)c(C)nc4n3)CCO2)cnn1 , field pEC50: > 7.00

The molecule identified as Cc1nc2nc(N3C[C@@H](C)O[C@@H](c4cnn(CC(F)F)c4)C3)nc(C34CC(C(F)(F)F)(C3)C4)c2cc1C#N registered its pEC50 at > 7.00

So, Cc1nc2nc([C@H]3CCO[C@@H](c4cnn(C5CC5)c4)C3)nc(-c3ccc(F)cc3F)c2cc1C#N ? Its pEC50 was > 7.00

Per the records, this molecule ( Cc1nc2nc(N3C[C@@H](C)O[C@@H](c4cnn(C5CC5)c4)C3)nc(C34C5C6C7C5C3C7C64)c2nc1C (stereo partly shown) ) has pEC50 equal to 6.30 to 7.00

response.value for Cc1nc2nc(C3CCOC(c4cnnc(N(C)C)c4)C3)nc(C34CC(C(F)(F)F)(C3)C4)c2nc1C (racemic) [Example 129] (field: pEC50) = > 7.00

In plain terms, Cc1nc2nc(C3CCOC(c4cnnc(N(C)C)c4)C3)nc(C34CC(C(F)(F)F)(C3)C4)c2nc1C (racemic) [Example 130] has a documented pEC50 of 6.30 to 7.00

* * *

# Assayed System: human TREM2 (Homo sapiens, UniProt Q9NZC2)
# Construct: expressed in transfected cells; host or cells: HEK293T-hTREM2 cells (HEK cell line expressing human TREM2 and DAP12)
# Sequence (Q9NZC2 19-230): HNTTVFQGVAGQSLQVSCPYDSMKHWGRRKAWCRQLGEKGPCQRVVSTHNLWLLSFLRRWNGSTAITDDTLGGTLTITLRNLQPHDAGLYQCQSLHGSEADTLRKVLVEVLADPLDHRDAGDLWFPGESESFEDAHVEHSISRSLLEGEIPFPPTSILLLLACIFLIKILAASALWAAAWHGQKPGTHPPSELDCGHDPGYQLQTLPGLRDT
# Sequence (O43914 22-113 partner): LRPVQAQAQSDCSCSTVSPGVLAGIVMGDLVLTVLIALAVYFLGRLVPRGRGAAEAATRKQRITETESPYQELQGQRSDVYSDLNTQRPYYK
# Experiment Summary: TREM2 agonist potency by cellular phosphorylation of Syk (AlphaLisa) in HEK293T-hTREM2 cells expressing human TREM2 and DAP12
# Assay type: cell-based
# Stated Conditions: HEK293 cells expressing hTREM2 and DAP12; 45 minutes at room temperature; Syk phosphorylation, AlphaLisa; read-out: hTREM2 EC50
pEC50: −log10 of the molar value.
Each entry below carries its recorded pEC50.

Below, 3 molecules whose answers are already recorded.
Molecule | Assayed System | Measured Property | Reported Value
COC(=O)c1cc2c(-c3ccc(F)cc3F)nc([C@H]3CCO[C@@H](c4cnn(C5CC5)c4)C3)nc2nc1C [Example 8] | human TREM2 (Homo sapiens, UniProt Q9NZC2) | pEC50 | > 7.00
Cc1nc2nc([C@H]3CCO[C@@H](c4cnn(C5CC5)c4)C3)nc(-c3ccc(F)cc3F)c2cc1C(=O)O [Example 9] | human TREM2 (Homo sapiens, UniProt Q9NZC2) | pEC50 | < 6.30
Cc1nc2nc(C3CCOC(c4ccc5nccn5c4)C3)nc(-c3ccc(F)cc3F)c2nc1C (centres unmarked) [Example 94] | human TREM2 (Homo sapiens, UniProt Q9NZC2) | pEC50 | > 7.00

Noted pEC50 for Cc1nc2nc(N3C[C@@H](C)O[C@@H](c4ccn5nccc5c4)C3)nc(C34CC(C(F)(F)F)(C3)C4)c2nc1C [Example 111] , tested on human TREM2 (Homo sapiens, UniProt Q9NZC2): > 7.00

* * *

# Assayed System: human TREM2 (Homo sapiens, UniProt Q9NZC2)
# Construct: expressed in transfected cells; host or cells: HEK293T-hTREM2 cells (HEK cell line expressing human TREM2 and DAP12)
# Experiment Summary: TREM2 agonist potency by cellular phosphorylation of Syk (AlphaLisa) in HEK293T-hTREM2 cells expressing human TREM2 and DAP12
# Format: cell-based
# Stated Conditions: HEK293 cells expressing hTREM2 and DAP12; 45 minutes at room temperature; Syk phosphorylation, AlphaLisa; read-out: hTREM2 EC50
Listed below: EC50 values for each entry.

Guide cases for EC50, answers given:
Compound | EC50
Cc1nc2nc(C3CCOC(c4ccc5ncnn5c4)C3)nc(-c3ccc(F)cc3F)c2nc1C (stereo not shown) | < 100 nM
Cc1noc(-c2cc3c(-c4ccc(F)cc4F)nc(N4C[C@@H](C)O[C@@H](c5cnn(C6CC6)c5)C4)nc3nc2C)n1 | < 100 nM
Cc1noc(-c2cc3c(-c4ccc(F)cc4F)nc(N4CCCC(N5CCOCC5)C4)nc3nc2C)n1 (stereo not shown) | > 500 nM

Record Cc1nc2nc([C@H]3CCO[C@@H](c4cn(C)c(=O)s4)C3)nc(C34CC(C(F)(F)F)(C3)C4)c2cc1C#N (racemic) . Reported EC50: < 100 nM

* * *

# Assayed System: human TREM2 (Homo sapiens)
# Construct: expressed in transfected cells; host or cells: HEK293T-hTREM2 cells (HEK cell line expressing human TREM2 and DAP12)
# Experiment Summary: TREM2 agonist potency by cellular phosphorylation of Syk (AlphaLisa) in HEK293T-hTREM2 cells expressing human TREM2 and DAP12
# Format: cell-based
# Stated Conditions: HEK293 cells expressing hTREM2 and DAP12; 45 minutes at room temperature; Syk phosphorylation, AlphaLisa; read-out: hTREM2 EC50
# Procedure: In vitro Measurement of Triggering Receptor Expressed on Myeloid Cells 2 activity using cellular phosphorylation of Spleen Tyrosine Kinase (“Syk”) Assays Measurement of TREM2 agonist potency was done using a HEK cell line expressing human TREM2 and DAP12 (HEK293T-hTREM2 cells). Binding of small molecules to, and activation of, TREM2 increases the phosphorylation of Syk. The resultant levels of Syk phosphorylation are measured using a commercial AlphaLisa reagent kit. […]
Measured Property: EC50

Entry Cc1nc2nc(N3C[C@@H](C)O[C@@H](c4cnn(C5CC5)c4)C3)nc(C34CC(C(F)F)(C3)C4)c2cc1C#N [Example 73] , human TREM2 (Homo sapiens) data, EC50 value: < 100 nM

Entry Cc1nc2nc(N3C[C@@H](C)O[C@@H](c4cnn(C5CC5)c4)C3)nc(-c3ccc(C#N)cc3F)c2nc1C [Example 91] : EC50 on human TREM2 (Homo sapiens) = < 100 nM

For Cc1nc2nc([C@H]3CCO[C@@H](c4cnn(C5CC5)c4)C3)nc(C34CC(C(F)(F)F)(C3)C4)c2cc1F [Example 24] on human TREM2 (Homo sapiens), measured EC50 was < 100 nM

* * *

# key: entry, value: EC50
# Assayed System: human TREM2 (Homo sapiens, UniProt Q9NZC2)
# Construct: expressed in transfected cells; host or cells: HEK293T-hTREM2 cells (HEK cell line expressing human TREM2 and DAP12)
# Experiment Summary: TREM2 agonist potency by cellular phosphorylation of Syk (AlphaLisa) in HEK293T-hTREM2 cells expressing human TREM2 and DAP12
# Type: cell-based
# Stated Conditions: HEK293 cells expressing hTREM2 and DAP12; 45 minutes at room temperature; Syk phosphorylation, AlphaLisa; read-out: hTREM2 EC50
# Protocol: In vitro Measurement of Triggering Receptor Expressed on Myeloid Cells 2 activity using cellular phosphorylation of Spleen Tyrosine Kinase (“Syk”) Assays Measurement of TREM2 agonist potency was done using a HEK cell line expressing human TREM2 and DAP12 (HEK293T-hTREM2 cells). Binding of small molecules to, and activation of, TREM2 increases the phosphorylation of Syk. The resultant levels of Syk phosphorylation are measured using a commercial AlphaLisa reagent kit. […]

Compound | Measured Property | Reported Value
Cc1nc2nc(N3C[C@@H](C)O[C@@H](c4ccnc(N(C)C)c4)C3)nc(C34CC(C(F)(F)F)(C3)C4)c2nc1C (racemic) [Example 142] | EC50 | 100 to 500 nM
Cc1nnc(-c2cc3c(C45CC(C(F)(F)F)(C4)C5)nc([C@H]4CCO[C@@H](c5cnn(C6CC6)c5)C4)nc3nc2C)o1 [Example 23] | EC50 | < 100 nM

For the next question, use this compound.
Noted for COCn1cc([C@H]2CN(c3nc(C45CC(C(F)(F)F)(C4)C5)c4cc(C#N)c(C)nc4n3)C[C@@H](C)O2)cn1 [Example 71] : its EC50 reads < 100 nM

* * *

# Assayed System: human TREM2 (Homo sapiens, UniProt Q9NZC2)
# Construct: expressed in transfected cells; host or cells: HEK293T-hTREM2 cells (HEK cell line expressing human TREM2 and DAP12)
# Experiment Summary: TREM2 agonist potency by cellular phosphorylation of Syk (AlphaLisa) in HEK293T-hTREM2 cells expressing human TREM2 and DAP12
# Assay type: cell-based
# Stated Conditions: HEK293 cells expressing hTREM2 and DAP12; 45 minutes at room temperature; Syk phosphorylation, AlphaLisa; read-out: hTREM2 EC50
# Procedure: In vitro Measurement of Triggering Receptor Expressed on Myeloid Cells 2 activity using cellular phosphorylation of Spleen Tyrosine Kinase (“Syk”) Assays Measurement of TREM2 agonist potency was done using a HEK cell line expressing human TREM2 and DAP12 (HEK293T-hTREM2 cells). Binding of small molecules to, and activation of, TREM2 increases the phosphorylation of Syk. The resultant levels of Syk phosphorylation are measured using a commercial AlphaLisa reagent kit. […]
Each entry below lists one item and its recorded EC50 value.

Illustrative cases are given below, each with its answer.
Compound | Measured Property | Reported Value
Cc1nc2nc(N3C[C@@H](C)O[C@@H](c4cnn(C5CC5)c4)C3)nc(C34CC(C(F)(F)F)(C3)C4)c2cc1C#N | EC50 | < 100 nM
Cc1nc2nc(C3CCOC(c4ccn5nccc5c4)C3)nc(-c3ccc(F)cc3F)c2nc1C (stereo not drawn) | EC50 | < 100 nM
Cc1nc2nc(C3CCOC(c4ccc5ncn(C)c5c4)C3)nc(-c3ccc(F)cc3F)c2nc1C (stereo not drawn) | EC50 | < 100 nM
Cc1nc2nc([C@@H]3CCO[C@H](c4cn(C)c(=O)s4)C3)nc(C34CC(C(F)(F)F)(C3)C4)c2nc1C | EC50 | < 100 nM
Cc1cc(-c2cc3c(-c4ccc(F)cc4F)nc(N4C[C@@H](C)O[C@@H](c5cnn(C6CC6)c5)C4)nc3nc2C)on1 | EC50 | < 100 nM
Cc1noc(-c2cc3c(C4CCCCC4)nc(N4CCO[C@@H](c5cnn(C)c5)C4)nc3nc2C)n1 | EC50 | 100 to 500 nM
Cc1cnc(-c2cc3c(-c4ccc(F)cc4F)nc(N4C[C@@H](C)O[C@@H](c5cnn(C6CC6)c5)C4)nc3nc2C)o1 | EC50 | < 100 nM
CO/N=C(\C)c1cc2c(-c3ccc(F)cc3F)nc(N3C[C@@H](C)O[C@@H](c4cnn(C5CC5)c4)C3)nc2nc1C | EC50 | < 100 nM

Now consider a different compound.
What the record says about COc1ncc([C@H]2C[C@@H](c3nc(C45CC(C(F)(F)F)(C4)C5)c4nc(C)c(C)nc4n3)CCO2)s1 (racemic) : EC50 is < 100 nM
